assay text: NutriPro test: serum, RBC and WBC nutrient values before and after ATB / customized blend
Format: in vivo, human
particulars: person two; serum; after customized blend
Each record here notes measured Follow-up Biomarker level.
endpoint name: Follow-up Biomarker level

{"structure": "CC1=C(C/C=C(\\C)CCC[C@H](C)CCC[C@H](C)CCCC(C)C)C(=O)c2ccccc2C1=O", "endpoint name": "Follow-up Biomarker level", "endpoint result": "12.4 ng/mL"}
{"structure": "NC(=O)NCCC[C@H](N)C(=O)O", "endpoint name": "Follow-up Biomarker level", "endpoint result": "43.4 nmol/mL"}
{"structure": "CC[C@H](C)[C@H](N)C(=O)O", "endpoint name": "Follow-up Biomarker level", "endpoint result": "149 nmol/mL"}
